- Test system: NCI-H1666 (Lung Adenocarcinoma)
- assay-details: combination Emax (second highest fraction inhibited in the dose matrix, 72 h); higher = more inhibition; extreme values may be limits of the assay

compound	combination Emax
CN(CCO)CC[C@H](CSc1ccccc1)Nc1ccc(S(=O)(=O)NC(=O)c2ccc(N3CCC([C@@H](O)c4ccccc4-c4ccc(Cl)cc4)CC3)cc2)cc1S(=O)(=O)C(F)(F)F [AZD4320] + CCN(CCO)CCCOc1ccc2c(Nc3cc(CC(=O)Nc4cccc(F)c4)[nH]n3)ncnc2c1 [AZD2811] (first compound max 1 µM, 7x7, partner max 1 µM)	0.154
COc1cccc(OCCCN)c1-c1cc(Nc2cnc(C#N)cn2)n[nH]1 [Prexasertib] + Cc1cc2ncnn2cc1Nc1ncc2c(n1)n(C1CCOCC1)c(=O)n2C [AZD7648] (first compound max 1 µM, 7x7, partner max 10 µM)	0.334
CC1(C)CCC(CN2CCN(c3ccc(C(=O)NS(=O)(=O)c4ccc(NCC5CCOCC5)c([N+](=O)[O-])c4)c(Oc4cnc5[nH]ccc5c4)c3)CC2)=C(c2ccc(Cl)cc2)C1 [Venetoclax] + C1CN(CCC1(C(=O)N[C@@H](CCO)C2=CC=C(C=C2)Cl)N)C3=NC=NC4=C3C=CN4 [Capivasertib] (first compound max 1 µM, 7x7, partner max 3 µM)	0.287
CN(C)CCCOc1ccc(-c2ccc3ncc4c(c3c2)n(C2CCOCC2)c(=O)n4C)cn1 [AZD0156] + O=C(c1cc(Cc2n[nH]c(=O)c3ccccc23)ccc1F)N1CCN(C(=O)C2CC2)CC1 [Olaparib] (first compound max 3 µM, partner max 3 µM)	0.269
Cc1cc2ncnn2cc1Nc1ncc2c(n1)n(C1CCOCC1)c(=O)n2C [AZD7648] + C[C@@H]1COCCN1C2=NC(=NC(=C2)C3(CC3)[S@](=N)(=O)C)C4=C5C=CNC5=NC=C4 [AZD6738] (first compound max 10 µM, 7x7, partner max 10 µM)	0.354
Cc1c2c(nn1C)CSCc1cc(n(C)n1)CSc1cc(c3ccccc3c1)OCCCc1c(C(=O)O)n(C)c3c-2c(Cl)ccc13 [AZD5991] + C=CCn1c(=O)c2cnc(Nc3ccc(N4CCN(C)CC4)cc3)nc2n1-c1cccc(C(C)(C)O)n1 [AZD1775] (first compound max 1 µM, partner max 1 µM)	0.338
CS(=O)(=O)CCNCc1ccc(-c2ccc3ncnc(Nc4ccc(OCc5cccc(F)c5)c(Cl)c4)c3c2)o1 [Lapatinib] + Cn1cnc2c(F)c(Nc3ccc(Br)cc3Cl)c(C(=O)NOCCO)cc21 [Selumetinib] (first compound max 10 µM, 7x7, partner max 10 µM)	0.839

----------
- Tested on: COR-L311 (Small Cell Lung Carcinoma)
- assay-details: combination Emax (second highest fraction inhibited in the dose matrix, 72 h); higher = more inhibition; extreme values may be limits of the assay
metric: combination Emax

compound	tested-target	metric	data-value
CC1(C)CCC(CN2CCN(c3ccc(C(=O)NS(=O)(=O)c4ccc(NCC5CCOCC5)c([N+](=O)[O-])c4)c(Oc4cnc5[nH]ccc5c4)c3)CC2)=C(c2ccc(Cl)cc2)C1 [Venetoclax] + C[C@@H](Nc1cc(F)cc(F)c1)c1cc(C(=O)N(C)C)cc2c(=O)cc(N3CCOCC3)oc12 [AZD8186] (first compound max 1 µM, 7x7, partner max 3 µM)	COR-L311 (Small Cell Lung Carcinoma)	combination Emax	0.768
CN(CCO)CC[C@H](CSc1ccccc1)Nc1ccc(S(=O)(=O)NC(=O)c2ccc(N3CCC([C@@H](O)c4ccccc4-c4ccc(Cl)cc4)CC3)cc2)cc1S(=O)(=O)C(F)(F)F [AZD4320] + C1CN(CCC1(C(=O)N[C@@H](CCO)C2=CC=C(C=C2)Cl)N)C3=NC=NC4=C3C=CN4 [Capivasertib] (first compound max 1 µM, 7x7, partner max 3 µM)	COR-L311 (Small Cell Lung Carcinoma)	combination Emax	1
CN(CCO)CC[C@H](CSc1ccccc1)Nc1ccc(S(=O)(=O)NC(=O)c2ccc(N3CCC([C@@H](O)c4ccccc4-c4ccc(Cl)cc4)CC3)cc2)cc1S(=O)(=O)C(F)(F)F [AZD4320] + CCN(CCO)CCCOc1ccc2c(Nc3cc(CC(=O)Nc4cccc(F)c4)[nH]n3)ncnc2c1 [AZD2811] (first compound max 1 µM, 7x7, partner max 1 µM)	COR-L311 (Small Cell Lung Carcinoma)	combination Emax	1

Origin of the recorded values: the supplement of paper PMC11061612
